molecular target: T1, HLA-A*24:02 (human); test: UV ligand exchange ELISA; exchange yield grade
T1 construct: Peptide-receptive MHC class I monomer made by UV cleavage of a UV-sensitive ligand
reportedMetric: peptide exchange yield

# annotated cases, reported peptide exchange yield shown
## Input I would be grateful if you could share the reported peptide exchange yield for TYPQLEGFKF .
## Output > 75%

## Input What do we get for RFPPTPPLF ?
## Output > 75%

## Input And for IYFSNTHFF ?
## Output 50 to 75%

Continuing:
## Input Which peptide exchange yield reading was recorded for the binder KYSSGFRNI ?
## Output 50 to 75%

## Input Now this one: IFVARLYYF
## Output > 75%

## Input Subsequent entry: KYLADLPTL
## Output > 75%

## Input Try SFQSKATVF next.
## Output 20 to 50%

## Input Next binder up: KYIEYYLVL
## Output > 75%

## Input What do you have for LYQDRFDYL ?
## Output > 75%

## Input Repeat for the following binder: SYADNILSF
## Output > 75%

## Input Next binder: RYLDEINLL
## Output 50 to 75%

## Input Cool, now RYLGKNWSF
## Output > 75%

## Input Also VFLPSEGFNF , if possible.
## Output 50 to 75%

## Input Similarly, EYNTIKDKF ?
## Output 50 to 75%

## Input Entry YYLSHLERI please
## Output > 75%

## Input # repeat for IFKEHNFSF
## Output > 75%
